Parameter: pKi. Scope: all listed entries.
- Target Or Test System: Sigma non-opioid intracellular receptor 1 (Mus musculus)
- Sequence (O55242 whole entry): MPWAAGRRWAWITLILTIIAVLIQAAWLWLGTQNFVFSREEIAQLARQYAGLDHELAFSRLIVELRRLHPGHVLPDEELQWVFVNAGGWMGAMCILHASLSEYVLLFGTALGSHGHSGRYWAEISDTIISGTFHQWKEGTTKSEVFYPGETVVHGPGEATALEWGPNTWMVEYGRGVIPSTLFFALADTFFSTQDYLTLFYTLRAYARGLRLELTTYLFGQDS
- Assay Notes: In vitro binding affinity for the mouse sigma opioid receptor
For clarity, pKi is expressed as the negative log10 of concentration in mol/L.

Consider the reported pKi for these compounds:
INSERT INTO results (compound, target_or_test_system, reported_metric, measured_value) VALUES
  ('Fc1ccc(COCC2CCN(Cc3ccccc3)CC2)cc1.O=C(O)/C=C\C(=O)O', 'Sigma non-opioid intracellular receptor 1 (Mus musculus)', 'pKi', 8.70),
  ('CSc1ccc(C(O)CC2CCN(Cc3ccccc3)CC2)cc1 (stereo not drawn)', 'Sigma non-opioid intracellular receptor 1 (Mus musculus)', 'pKi', 8.00),
  ('Fc1ccc(OCC2CCN(CC3CC3)CC2)cc1', 'Sigma non-opioid intracellular receptor 1 (Mus musculus)', 'pKi', 8.70),
  ('Br.CC(C)(C)c1ccc(C(=O)CC2CCN(CC3CC3)CC2)cc1.O', 'Sigma non-opioid intracellular receptor 1 (Mus musculus)', 'pKi', 8.10),
  ('O=C(CC1CCN(CCc2ccccc2)CC1)c1ccc(F)cc1', 'Sigma non-opioid intracellular receptor 1 (Mus musculus)', 'pKi', 8.10),
  ('O.c1ccc(-c2ccc(OCC3CCN(CC4CC4)CC3)cc2)cc1', 'Sigma non-opioid intracellular receptor 1 (Mus musculus)', 'pKi', 7.92),
  ('COc1ccc(OCC2CCN(CC3CC3)CC2)cc1.Cl.O', 'Sigma non-opioid intracellular receptor 1 (Mus musculus)', 'pKi', 7.74),
  ('CC(C)(C)c1ccc(OCC2CCN(CC3CC3)CC2)cc1', 'Sigma non-opioid intracellular receptor 1 (Mus musculus)', 'pKi', 7.85),
  ('O.c1ccc2c(OCC3CCN(CC4CC4)CC3)ccnc2c1', 'Sigma non-opioid intracellular receptor 1 (Mus musculus)', 'pKi', 7.30),
  ('O.O=C(Cc1ccc(F)cc1)C1CCN(Cc2ccccc2)CC1.O=C(O)/C=C\C(=O)O', 'Sigma non-opioid intracellular receptor 1 (Mus musculus)', 'pKi', 8.52);

The compound "O.O=C(Cc1ccc(F)cc1)C1CCN(Cc2ccncc2)CC1.O=C(O)/C=C\C(=O)O" showed pKi equal to 8.15

The compound "Fc1ccc(SCC2CCN(CCC3CC3)CC2)cc1" showed pKi equal to 8.30

The compound "Fc1ccc(OCC2CCN(Cc3ccncc3)CC2)cc1.O" showed pKi equal to 8.15

The compound "Cl.Fc1ccc(OCC2CCN(CCc3ccc(Cl)cc3)CC2)cc1" showed pKi equal to 8.30

The compound "CCNc1ccc(OCC2CCN(CC3CC3)CC2)cc1.Cl.O" showed pKi equal to 7.48

The compound CC1CC1CN1CCC(COc2ccc(F)cc2)CC1.O=C(O)/C=C\C(=O)O (stereo not drawn) showed pKi equal to 8.30

The compound "Br.CN(C)c1ccc(C(=O)CC2CCN(CC3CC3)CC2)cc1.O" showed pKi equal to 7.48

The compound "O.O=C(CC1CCN(CCc2c[nH]c3ccccc23)CC1)c1ccc(F)cc1" showed pKi equal to 7.59

The compound "Cl.Clc1ccc(OCC2CCN(CC3CC3)CC2)c(Cl)c1" showed pKi equal to 8.40

The compound "CN(C)c1cccc(OCC2CCN(CC3CC3)CC2)c1.O" showed pKi equal to 8.30

The compound Cl.OC(CC1CCN(Cc2ccccc2)CC1)c1ccc(C(F)(F)F)cc1 (stereo not drawn) showed pKi equal to 8.22

The compound "c1ccc(OCC2CCN(CC3CC3)CC2)cc1" showed pKi equal to 8.15

The compound "O=C(CC1CCN(CCc2ccc(C(F)(F)F)cc2)CC1)c1ccc(F)cc1" showed pKi equal to 8.05
